Where do these numbers come from? They come from paper PMC7539012.

Listed molecules paired with reported ThS net change
System: 1N4R p-tau
Construct: made in house; host or cells: E. coli (PIMAX system)
test details: p-tau aggregation modulator screen of 1280-compound library (ThS fluorescence net change over 16 h);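 further: 30 µM compound with 6 µM p-tau over 16 h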
Type: biochemical
measurement parameters: library screen, ThS fluorescence net change over 16 h with p-tau
Counter-ions that a name gives are not always drawn.

| molecule | ThS net change |
| --- | --- |
| Nc1nc(N)nc(-c2cc(Cl)ccc2Cl)n1 [Irsogladine maleate] | 308 |
| CCCCCCC[N+](CC)(CC)CCCCc1ccc(Cl)cc1.Cc1ccc(S(=O)(=O)[O-])cc1 [Clofilium tosylate] | 326 |
| COC(=O)C1=C(C)NC(C)=C(C(=O)OC)C1c1ccccc1[N+](=O)[O-] [Nifedipine, nifedipine, reference compound] | -97 |
| COC(=O)C1=C(C)NC(C)=C(C(=O)OCC(C)C)C1c1ccccc1[N+](=O)[O-] (centres unmarked) [Nisoldipine, nisoldipine, reference compound] | -29 |
| CCN(CC)CCOC(=O)C(Cc1cccc2ccccc12)CC1CCCO1 (centres unmarked) [Nafronyl oxalate] | 324 |
| CC1=C(CC(=O)O)c2cc(F)ccc2/C1=C\c1ccc([S+](C)[O-])cc1 (centres unmarked) [Sulindac] | 288 |
| CC(NC(C)(C)C)C(=O)c1cccc(Cl)c1 (centres unmarked) [Bupropion hydrochloride] | 278 |
| CCCCCCCCCCCCCCCC[N+](C)(C)CCN(Cc1ccc(OC)cc1)c1ncccn1 [Thonzonium bromide] | 312 |
